experimental.details: in vivo
measurement.context: male, Sprague-Dawley, rat, iv, Gemcitabine blood concentration, 45 minutes
measured.attribute: concentration at 45 min
Answers without a unit are incomplete; give the number and then its unit.

Q: Indicate the recorded concentration at 45 min value for this molecule: Nc1ccn([C@@H]2O[C@H](CO)[C@@H](O)C2(F)F)c(=O)n1 [Gemcitabine, 2,2′-difluorodeoxycytidine]
Result: 3410 ng/mL

###

experimental.details: in vivo
measurement.context: male, Sprague-Dawley, rat, iv, 8 mg/kg
From the text: Sprague-Dawley male rats were subjected to induced anesthesia with isoflurane, which is an inhalation anesthetic, then a polyethylene (PE) tube (Clay Adams, Becton Dickinson, NJ, USA) was inserted into a carotid artery (for blood collection) and sutured with a suture, followed by fixing an end of the suture behind the neck. […]
measured.attribute: clearance (mL/min/kg)
One number for each entry, in mL/min/kg.

Q: Tell us which clearance value is on record for Nc1ccn([C@@H]2O[C@H](CO)[C@@H](O)C2(F)F)c(=O)n1
Result: 5.59
